System: 379773-124-R-J2-PDC spheroid viability
Assay: Anticancer human tumor 379773-124-R-J2-PDC patient-derived endometrial carcinoma cell line growth inhibition [POLQ]
Settings: second compound 0.0316 µM; first compound 1 µM; hits give low values; spheroids with HUVEC and MSC
OBSERVED_PROPERTY: viability, T/C (%)

C=CCn1c(=O)c2cnc(Nc3ccc(N4CCN(C)CC4)cc3)nc2n1-c1cccc(C(C)(C)O)n1 + Cc1cccc(N(C)C(=O)C2C(O)CCN2c2nc(C)cc(C(F)(F)F)c2C#N)c1    3.05
O=C(c1cc(Cc2n[nH]c(=O)c3ccccc23)ccc1F)N1CCN(C(=O)C2CC2)CC1 + Cc1cccc(N(C)C(=O)C2C(O)CCN2c2nc(C)cc(C(F)(F)F)c2C#N)c1    80.9
CCCS(=O)(=O)Nc1ccc(F)c(C(=O)c2c[nH]c3ncc(-c4ccc(Cl)cc4)cc23)c1F + Nc1ccc(C#CCN(C(=O)Cc2ncc(C(F)(F)F)cc2C(F)(F)F)c2ccc(F)cc2)nn1    92
COc1cc(C2c3cc4c(cc3C(OC3OC5COC(C)OC5C(O)C3O)C3COC(=O)C23)OCO4)cc(OC)c1O (stereo not given) + COC1C(OC(N)=O)C(O)C(Oc2ccc3c(O)c(NC(=O)c4ccc(O)c(CC=C(C)C)c4)c(=O)oc3c2C)OC1(C)C    56.9
O=c1[nH]cc(F)c(=O)[nH]1 + Nc1ccc(C#CCN(C(=O)Cc2ncc(C(F)(F)F)cc2C(F)(F)F)c2ccc(F)cc2)nn1    85.2

----------
Test system: 379773-124-R-J2-PDC spheroid viability
Assay: Anticancer human tumor 379773-124-R-J2-PDC cell line growth inhibition [POLQ];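 also: spheroids exposed to drugs for seven days before readout; percent viability relative to DMSO vehicle control taken as 100%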
Conditions: second compound 0.1 µM; first compound 10 µM; hits give low values; spheroids with HUVEC and MSC
This section presents compounds with their documented viability, T/C values.
OBSERVED_PROPERTY: viability, T/C (%)

COc1cc(C2c3cc4c(cc3C(OC3OC5COC(C)OC5C(O)C3O)C3COC(=O)C23)OCO4)cc(OC)c1O (stereo not given) + COC1C(OC(N)=O)C(O)C(Oc2ccc3c(O)c(NC(=O)c4ccc(O)c(CC=C(C)C)c4)c(=O)oc3c2C)OC1(C)C    10.2
O=C(c1cc(Cc2n[nH]c(=O)c3ccccc23)ccc1F)N1CCN(C(=O)C2CC2)CC1 + Nc1ccc(C#CCN(C(=O)Cc2ncc(C(F)(F)F)cc2C(F)(F)F)c2ccc(F)cc2)nn1    45.5
CCc1cc2c(N3CCc4c(cc(Cn5ccnc5)cc4-c4cn(C)nc4C(F)(F)F)C3=O)ccnc2c(OC)n1 + Cc1cccc(N(C)C(=O)C2C(O)CCN2c2nc(C)cc(C(F)(F)F)c2C#N)c1    50
COc1ccc([C@@H](O)c2cc(-c3ncnc4cc(N5CCOCC5)ccc34)c(F)cc2Cl)nn1 + COC1C(OC(N)=O)C(O)C(Oc2ccc3c(O)c(NC(=O)c4ccc(O)c(CC=C(C)C)c4)c(=O)oc3c2C)OC1(C)C    49.7
CCc1cc2c(N3CCc4c(cc(Cn5ccnc5)cc4-c4cn(C)nc4C(F)(F)F)C3=O)ccnc2c(OC)n1 + Nc1ccc(C#CCN(C(=O)Cc2ncc(C(F)(F)F)cc2C(F)(F)F)c2ccc(F)cc2)nn1    53.9

----------
System: 379773-124-R-J2-PDC spheroid viability
Test: Anticancer human tumor 379773-124-R-J2-PDC cell line growth inhibition [POLQ];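 also: spheroids exposed to drugs for seven days before readout; percent viability relative to DMSO vehicle control taken as 100%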
Conditions: second compound 10 µM; first compound 1 µM; hits give low values; spheroids with HUVEC and MSC
// viability, T/C lookup, one value per entry
OBSERVED_PROPERTY: viability, T/C (%)

CCCS(=O)(=O)Nc1ccc(F)c(C(=O)c2c[nH]c3ncc(-c4ccc(Cl)cc4)cc23)c1F + Nc1ccc(C#CCN(C(=O)Cc2ncc(C(F)(F)F)cc2C(F)(F)F)c2ccc(F)cc2)nn1    83.6
COc1cc(C2c3cc4c(cc3C(OC3OC5COC(C)OC5C(O)C3O)C3COC(=O)C23)OCO4)cc(OC)c1O (stereo not drawn) + Nc1ccc(C#CCN(C(=O)Cc2ncc(C(F)(F)F)cc2C(F)(F)F)c2ccc(F)cc2)nn1    57.6
COc1cc2cc(C(=O)CCC(=O)O)sc2cc1OC + COC1C(OC(N)=O)C(O)C(Oc2ccc3c(O)c(NC(=O)c4ccc(O)c(CC=C(C)C)c4)c(=O)oc3c2C)OC1(C)C    69.2
